- ASSAY_PROCEDURE: Metabolic stability in rat liver microsomes assessed as compound remaining at 2 uM incubated for 30 mins
- Assay type: ADME, Microsome
- RUN_PARAMETERS: read-out: Stabilty
The compounds listed here are annotated with their remaining at 0.5 h, 2 µM.

Below: 2 compounds and their reported remaining at 0.5 h, 2 µM.
C[C@@H](N1CN([C@H]2c3ccccc3CSc3cc(Cl)ccc32)n2ccc(=O)c(O)c2C1=O)C(F)(F)F :: 101%
C[C@@H](N1CN([C@H]2c3ccccc3CSc3ccc(F)cc32)n2ccc(=O)c(O)c2C1=O)C(F)(F)F :: 103%

Request the reported remaining at 0.5 h, 2 µM associated with "C[C@@H](N1CN([C@H]2c3ccccc3CSc3cccc(F)c32)n2ccc(=O)c(O)c2C1=O)C(F)(F)F"
97.4%

Item under review: "C[C@@H](N1CN([C@H]2c3ccccc3CSc3cccc(Cl)c32)n2ccc(=O)c(O)c2C1=O)C(F)(F)F" . Reported remaining at 0.5 h, 2 µM?
85.4%

Which measured remaining at 0.5 h, 2 µM value corresponds to CC(CN(C)C)N1CN(C2c3ccccc3CSc3ccccc32)n2ccc(=O)c(O)c2C1=O (configuration not stated) ?
76.4%

Sample "C[C@@H](N1CN([C@@H]2c3ccccc3SCc3c(F)cccc32)n2ccc(=O)c(O)c2C1=O)C(F)(F)F" — what was its remaining at 0.5 h, 2 µM?
91.8%

Can you share its remaining at 0.5 h, 2 µM? I mean this compound: "C[C@@H](N1CN([C@H]2c3ccc(F)cc3CSc3ccccc32)n2ccc(=O)c(O)c2C1=O)C(F)(F)F"
95.3%

Given the compound "C[C@@H](N1CN([C@H]2c3ccccc3CSc3ccccc32)n2ccc(=O)c(O)c2C1=O)C(F)(F)F" , what is its reported remaining at 0.5 h, 2 µM?
98.1%

May I ask what remaining at 0.5 h, 2 µM has been recorded for O=C1c2c(O)c(=O)ccn2N(C2c3ccccc3CSc3ccccc32)CN1C1CC1 (configuration not stated) ?
73.7%

Requested field: remaining at 0.5 h, 2 µM. Item: COCC(C)N1CN(C2c3ccccc3CSc3ccccc32)n2ccc(=O)c(O)c2C1=O (configuration not stated)
58.6%

Name the reported remaining at 0.5 h, 2 µM value associated with the compound "C[C@@H](N1CN([C@H]2c3ccccc3SCc3cccc(Cl)c32)n2ccc(=O)c(O)c2C1=O)C(F)(F)F"
93.3%

Param item = [2H]C([2H])([2H])C([2H])(N1CN(C2c3ccccc3CSc3ccccc32)n2ccc(=O)c(O)c2C1=O)C([2H])([2H])[2H] (configuration not stated) ; retrieve measured remaining at 0.5 h, 2 µM.
74.4%

Any idea what remaining at 0.5 h, 2 µM was measured for "C[C@@H](N1CN([C@H]2c3ccccc3CSc3cc(F)ccc32)n2ccc(=O)c(O)c2C1=O)C(F)(F)F" ?
93.9%

----------
This section presents compounds with their documented remaining at 0.5 h, 2 µM values.
- ASSAY_PROCEDURE: Metabolic stability in rat liver microsomes assessed as compound remaining at 2 uM incubated for 30 mins
- Format: ADME, Microsome
- RUN_PARAMETERS: read-out: Stabilty
Write down the numeric answer in % and omit the unit.

C[C@H](N1CN([C@H]2c3ccccc3CSc3ccccc32)n2ccc(=O)c(O)c2C1=O)C(F)(F)F :: 79.8
C[C@@H](N1CN([C@H]2c3ccc(Cl)cc3CSc3ccccc32)n2ccc(=O)c(O)c2C1=O)C(F)(F)F :: 96.1

// below: remaining at 0.5 h, 2 µM requested for another compound
Entry under review: "C[C@@H](N1CN([C@@H]2c3ccccc3SCc3c(Cl)cccc32)n2ccc(=O)c(O)c2C1=O)C(F)(F)F" . Reported remaining at 0.5 h, 2 µM?
102

----------
Each entry below lists one item and its recorded fraction unbound value.
- ASSAY_PROCEDURE: Fraction unbound in rat serum
- Format: ADME, cell-free
The answer should be a number; do not append a unit.

C[C@@H](N1CN([C@H]2c3ccccc3CSc3ccccc32)n2ccc(=O)c(O)c2C1=O)C(F)(F)F :: 0.0103
C[C@@H](N1CN([C@H]2c3ccccc3CSc3cc(F)ccc32)n2ccc(=O)c(O)c2C1=O)C(F)(F)F :: 0.00807
C[C@@H](N1CN([C@H]2c3ccccc3CSc3cccc(F)c32)n2ccc(=O)c(O)c2C1=O)C(F)(F)F :: 0.0119
C[C@@H](N1CN([C@H]2c3ccc(F)cc3CSc3ccccc32)n2ccc(=O)c(O)c2C1=O)C(F)(F)F :: 0.00383
C[C@@H](N1CN([C@H]2c3cc(F)ccc3CSc3ccccc32)n2ccc(=O)c(O)c2C1=O)C(F)(F)F :: 0.0129

Fill in: fraction unbound of O=C1c2c(O)c(=O)ccn2N(C2c3ccccc3CSc3ccccc32)CN1C1CC1 (configuration not stated) is ___
0.0783

----------
Entries annotated with measured clearance
- ASSAY_PROCEDURE: Clearance in iv dosed rat by LC/MS/MS analysis
- Type: ADME, organism-based
- RUN_PARAMETERS: in vivo
Form entry: value (mL/min/kg) — number only.

Past entries and their recorded results:
CC(C)N1CN(C2c3ccccc3CSc3ccccc32)n2ccc(=O)c(O)c2C1=O (racemic) :: 32.7
C[C@@H](N1CN([C@H]2c3ccc(F)cc3CSc3ccccc32)n2ccc(=O)c(O)c2C1=O)C(F)(F)F :: 11.6

# query: clearance of entry "C[C@@H](N1CN([C@H]2c3ccccc3CSc3cccc(Cl)c32)n2ccc(=O)c(O)c2C1=O)C(F)(F)F"
10.2

clearance lookup needed for "C[C@@H](N1CN([C@H]2c3ccccc3CSc3cc(Cl)ccc32)n2ccc(=O)c(O)c2C1=O)C(F)(F)F" , thanks.
12.2

Look at this molecule and give its reported clearance. "C[C@@H](N1CN([C@H]2c3ccccc3SCc3cccc(Cl)c32)n2ccc(=O)c(O)c2C1=O)C(F)(F)F"
19.6

Query (molecule): "C[C@@H](N1CN([C@H]2c3cc(F)ccc3CSc3ccccc32)n2ccc(=O)c(O)c2C1=O)C(F)(F)F" ; field requested: clearance
21.3

----------
- ASSAY_PROCEDURE: Fraction unbound in rat serum
- Type: ADME, cell-free
Listed here are compounds together with their documented fraction unbound.
# answer = number (no unit)

Recorded fraction unbound, per entry:
C[C@@H](N1CN([C@H]2c3cc(Cl)ccc3CSc3ccccc32)n2ccc(=O)c(O)c2C1=O)C(F)(F)F :: 0.00514
C[C@@H](N1CN([C@@H]2c3ccccc3SCc3cccc(F)c32)n2ccc(=O)c(O)c2C1=O)C(F)(F)F :: 0.012
CC(C)N1CN(C2c3ccccc3CSc3ccccc32)n2ccc(=O)c(O)c2C1=O (racemic) :: 0.0768

Next compound, fraction unbound to be filled in.
# fraction unbound lookup, item "C[C@@H](N1CN([C@@H]2c3ccccc3SCc3c(F)cccc32)n2ccc(=O)c(O)c2C1=O)C(F)(F)F"
0.00978

----------
- ASSAY_PROCEDURE: Clearance in iv dosed rat by LC/MS/MS analysis
- Assay type: ADME, organism-based
- RUN_PARAMETERS: in vivo
MEASUREMENT_NAME: clearance (mL/min/kg)
Enter your answer as a number in mL/min/kg; do not include the unit.

Consider the reported clearance for these molecules:
C[C@@H](N1CN([C@H]2c3cc(Cl)ccc3CSc3ccccc32)n2ccc(=O)c(O)c2C1=O)C(F)(F)F :: 12.4
C[C@@H](N1CN([C@H]2c3ccc(Cl)cc3CSc3ccccc32)n2ccc(=O)c(O)c2C1=O)C(F)(F)F :: 5.7
C[C@@H](N1CN([C@H]2c3ccccc3CSc3cc(F)ccc32)n2ccc(=O)c(O)c2C1=O)C(F)(F)F :: 13.4
[2H]C([2H])([2H])C([2H])(N1CN(C2c3ccccc3CSc3ccccc32)n2ccc(=O)c(O)c2C1=O)C([2H])([2H])[2H] (configuration not stated) :: 39.1
C[C@@H](N1CN([C@@H]2c3ccccc3SCc3c2ccc(F)c3F)n2ccc(=O)c(O)c2C1=O)C(F)(F)F :: 11

Report clearance for O=C1c2c(O)c(=O)ccn2N(C2c3ccccc3CSc3ccccc32)CN1C1CC1 (configuration not stated) please.
46

Param item = CC(CN(C)C)N1CN(C2c3ccccc3CSc3ccccc32)n2ccc(=O)c(O)c2C1=O (configuration not stated) ; retrieve measured clearance.
98.7

Query (molecule): COCC(C)N1CN(C2c3ccccc3CSc3ccccc32)n2ccc(=O)c(O)c2C1=O (configuration not stated) ; field requested: clearance
49.1

----------
- ASSAY_PROCEDURE: Metabolic stability in rat liver microsomes assessed as compound remaining at 2 uM incubated for 30 mins
- Assay type: ADME, Microsome
- RUN_PARAMETERS: read-out: Stabilty
Property: remaining at 0.5 h, 2 µM; scope: individual compounds
Answer in %, number only, no unit symbol.

C[C@@H](N1CN([C@H]2c3ccccc3CSc3c(F)cccc32)n2ccc(=O)c(O)c2C1=O)C(F)(F)F :: 95.6

Give the measured remaining at 0.5 h, 2 µM of "C[C@@H](N1CN([C@H]2c3ccccc3CSc3c(Cl)cccc32)n2ccc(=O)c(O)c2C1=O)C(F)(F)F" .
92.3

Param item = "C[C@@H](N1CN([C@@H]2c3ccccc3SCc3cccc(F)c32)n2ccc(=O)c(O)c2C1=O)C(F)(F)F" ; retrieve measured remaining at 0.5 h, 2 µM.
102

May I ask what remaining at 0.5 h, 2 µM has been recorded for CC(C)N1CN(C2c3ccccc3CSc3ccccc32)n2ccc(=O)c(O)c2C1=O (racemic) ?
72.6

# credit: ChEMBL document CHEMBL4699501
